The reported measurements were obtained from PubChem BioAssay.

System: Fibrinogen (Alexa647-labelled)
Assay: Alexa647-fibrinogen binding to printed small molecules – biochemical, small-molecule microarray, 635/667 nm fluorescence, artefact control for SMM control-protein annotation, profiling panel (AID 1131);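 also: z-score merges 667 nm fluorescence with per-spot signal-to-noise over triplicate slides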
Conditions: fibrinogen-A647 binding fluorescence, higher = more signal
MEASURED_QUANTITY: composite z-score
Lab note: jot down the number only; don't add units.

Some solved cases for reference:
Prompt: // lookup composite z-score for COCCOC(=O)N1C(=O)[C@@]2(c3cc(C#Cc4ccc(OC)cc4)ccc31)[C@H](C(N)=O)[C@H]1C(=O)O[C@H](c3ccccc3)[C@H](c3ccccc3)N1[C@@H]2c1ccc(OCCO)cc1
Completion: 0.898

Prompt: Also check C=C[C@@H](O)[C@H]1CC(c2ccccc2)=NO1
Completion: -0.0611

Prompt: Then what about the molecule NC(=O)[C@H]1[C@@H]2C(=O)O[C@@H](c3ccccc3)[C@@H](c3ccccc3)N2[C@@H](c2ccc(O)cc2)[C@]12C(=O)Nc1ccc(C#CC3(O)CCCCCC3)cc12 ?
Completion: 0.946

---
Prompt: Consider the molecule C=C(C(=O)CC[C@H](OC(=O)c1cccnc1)c1ccc(OCCO)cc1)C(C)C and give its measured composite z-score.
Completion: 0.917

====

Test: growth of efflux-deficient E. coli DRC39 – strain DRC39, OD650, 24 h, E. coli filamentation inducers, primary screen (AID 1178);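 also: growth measured as culture turbidity by optical density at 650 nm; test concentration not given here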
Settings: E. coli DRC39 acrAB, higher = more signal, called active from +8 up or from −8 down
MEASURED_QUANTITY: z-score
Please give only the number in your answer, with no unit.

Take a look at these entries with their results.
Prompt: # get_value(readout='z-score', item= COCC1=C([C@H](O)CCc2ccccc2)[C@H](CO)[C@@H]2C(=O)N(C)C(=O)[C@@H]2C1 )
Completion: 2.16

Prompt: Likewise for CN(C)CCCN1C(=O)[C@@]2(Cc3ccccc31)c1ccccc1C(=O)N(Cc1ccccc1)[C@H]2c1ccc(CO)cc1 ?
Completion: 0.672

Field: next molecule
Prompt: Which value of z-score has been reported for CCCC=C(CCC)[C@@H](NS(=O)(=O)CC)c1ccccc1 in the records?
Completion: -1.1

====

# z-score listing for each entry below
Assay: budding yeast growth changes without added modifier – OD600, strain BY4716, 24 h, basal condition, primary screen (AID 1173)
Details: S. cerevisiae BY4716 growth, OD600, 24 h; higher = more signal, called active from +8 up or from −8 down
Quick one: just the number, no unit, thanks!

Prompt: Quick check: z-score of C=C(COC)C(=O)CC[C@H](OC(=O)c1ccccc1-c1ccccc1C(=O)O)c1ccc(OCCO)cc1 ?
Completion: 0.142

Prompt: Same again, this time with CO[C@H]1O[C@H](CO)[C@@H](OC(=O)Nc2cccc(F)c2)[C@H](OC(=O)Nc2ccc3c(c2)OCO3)[C@H]1OC(=O)Nc1ccc2c(c1)OCO2
Completion: 1.55

Prompt: What do you have for C#CCNS(=O)(=O)N(C)C ?
Completion: -0.61

Prompt: Same question for CC1CC/C=C\[C@H]2OC34C=CCN(c5ccc(Cl)cc5)C(=O)[C@H]3N(C(CO)C(C)C)C(=O)[C@]4(C)C2C(=O)O1 (stereo partly drawn) please.
Completion: -0.432

Prompt: Then this compound: COC(=O)[C@@]1(Cc2ccc(OC)cc2)[C@H]2c3cc(C(=O)N(C)C)n(Cc4cc(F)c(F)c(F)c4)c3C[C@H]2CN1C(=O)c1ccccc1
Completion: 1.83

Others:
Prompt: Please give the measured z-score for this compound: [N-]=[N+]=NCc1ccccc1C[C@]1(C(=O)NCCN2CCOCC2)COC(c2ccc(OCCCO)cc2)=N1
Completion: -1.36

Prompt: Proceed to CCCCC(=C=CC[C@H](O)c1ccccc1OCCO)C[C@H](O)c1ccccn1
Completion: -1.8

Prompt: Lookup O=C1C[C@@](C(=O)NCc2ccccc2)(c2ccc([N+](=O)[O-])cc2)[C@@H](c2ccc(CO)cc2I)N1C1CCCCC1
Completion: 0.432

Prompt: Repeat with COc1ccc([Si](C)(C)[C@@H]2[C@@H](CCO)O[C@]3(C(=O)N(Cc4ccccc4)c4ccc(N5CCCCC5=O)cc43)[C@H]2C)cc1
Completion: 0.86
